Assay: CCTE_Shafer_MEA_acute_spike_number: CCTE's Neural Acute Assay for Total Number of Spikes, Shafer Lab (AID 2284008)
Active and inactive are the calls of the source. Rule for the calls: active = hit-call score of the fitted dose curve at least 0.9, where 1 is the maximum; inactive = score below 0.9.
Reply using exactly one outcome from active, inactive

Before answering, review these 2 worked examples.
COMPOUND	GROUP
Oc1c(Cl)cc(Cl)c(Cl)c1Cc1c(O)c(Cl)cc(Cl)c1Cl	active
CCCCCCC(CO)CCCC (configuration not stated)	active

Task: # lookup: test call for O=CN1CCOCC1
Result: inactive

Task: Field: outcome | Entry: O=C(Nc1ccc2c(O)c(N=Nc3ccc(N=Nc4ccc(S(=O)(=O)O)cc4)cc3)c(S(=O)(=O)O)cc2c1)c1ccccc1
Result: inactive

Task: Given C=CC(C)(O)CCC=C(C)C (configuration not stated) , state the outcome it received in this test.
Result: inactive

Task: Hey, what did the test say about CN(C)C(=S)SC(=S)N(C)C ?
Result: inactive

Task: Identify the outcome logged in this assay for the compound shown: CCOC(=O)C(C#N)=C(c1ccccc1)c1ccccc1
Result: inactive

---

Biological target: human Retinoic Acid Receptor gamma (RARg), RARG (gene 5916) (UniProt P13631)
Sequence (P13631 whole entry, looked up): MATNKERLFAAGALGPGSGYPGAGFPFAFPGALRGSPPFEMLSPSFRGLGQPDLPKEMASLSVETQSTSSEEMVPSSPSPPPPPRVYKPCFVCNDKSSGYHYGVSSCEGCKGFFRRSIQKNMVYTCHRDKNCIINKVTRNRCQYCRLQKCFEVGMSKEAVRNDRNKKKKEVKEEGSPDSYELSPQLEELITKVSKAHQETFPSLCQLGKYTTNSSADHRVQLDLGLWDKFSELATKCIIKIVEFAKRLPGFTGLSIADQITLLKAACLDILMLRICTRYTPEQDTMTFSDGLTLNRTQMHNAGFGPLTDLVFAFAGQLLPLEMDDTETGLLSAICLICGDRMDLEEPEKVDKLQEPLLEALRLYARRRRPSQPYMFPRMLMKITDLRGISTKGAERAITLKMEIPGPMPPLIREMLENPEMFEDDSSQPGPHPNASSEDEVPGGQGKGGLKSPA
Experiment: ATG_RARg_TRANS: Attagene TRANS-FACTORIAL HepG2 Assay for human Retinoic Acid Receptor gamma (RARg) (AID 2283009)
Records with an inconclusive call do not appear. Active and inactive are the calls of the source. How the source made its calls: active means hit-call score of the fitted dose curve at least 0.9, where 1 is the maximum; inconclusive means response in the unintended direction; inactive means score below 0.9.
MEASURED QUANTITY: outcome

Worked examples follow.
COMPOUND STRUCTURE	outcome
CN1C(=O)c2ccccc2C1=O	inactive
Nc1ccc(NCCO)c([N+](=O)[O-])c1	inactive
Cc1cc(CCC(=O)OCCOCCOCCOC(=O)CCc2cc(C)c(O)c(C(C)(C)C)c2)cc(C(C)(C)C)c1O	inactive
CC1(C)CCC[C@]2(C)[C@H]3CCO[C@]3(C)CC[C@@H]12	inactive
CN(C)CCOc1ccc(/C(=C(/CCCl)c2ccccc2)c2ccccc2)cc1	inactive

Could you now look at the following compound, please?
Task: Look up outcome for this compound: CCC1CCCCC1
Result: inactive

---

Test: ATG_MRE_CIS: Attagene CIS-FACTORIAL HepG2 Assay for human Metal Responsive Element (MRE) (AID 2282954)
Conditions: HepG2 MRE cis-reporter transcription, Attagene multiplex; actives raise or lower the signal
The source made the active and inactive calls. How the source made its calls: active means hit-call score of the fitted dose curve at least 0.9, where 1 is the maximum; inactive means score below 0.9.
Could you please pick one outcome from this set? 1 (yes) for active, 0 (no) for inactive

MOLECULE	GROUP
CCOC(=O)C(C#N)=C(c1ccccc1)c1ccccc1	1 (yes)

Task: Check the results log: what was the call for NCC1CCCC(CN)C1 (stereo unspecified) ?
Result: 0 (no)

Task: Please indicate how the test categorized COc1ccc(COC(C)=O)cc1 .
Result: 0 (no)

Task: # outcome recorded in this test, key = CC1CCC(C(C)C)C(O)C1 (stereo unspecified)
Result: 0 (no)

Task: Dear colleague, could you share the recorded outcome for C#CC(C)(O)CC(C)C (stereo unspecified) when you have a moment?
Result: 0 (no)

---

Assay: BSK_SAg_SRB: Viability Assessment in the BioMAP Diversity Plus: SAg Assay (AID 2283096);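 note: cells read one day after compound addition; hits may be either gain or loss of signal compared with DMSO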
Details: primary human HUVEC with PBMC
Description: BSK_SAg is a cell-based, multiplexed-readout assay that uses umbilical vein endothelium and peripheral blood mononuclear cells, a human vascular primary cell co-culture, with measurements taken at 24 hours after chemical dosing in a 96-well plate.BSK_SAg_SRB is an assay component measured in the BSK_SAg assay. […] This assay endpoint, BSK_SAg_SRB, was analyzed with bidirectional fitting relative to DMSO as the negative control and baseline of activity. […]
The source made the active and inactive calls. Rule for the calls: active = hit-call score of the fitted dose curve at least 0.9, where 1 is the maximum; inactive = score below 0.9.
Lab note: assign the record to one of active, inactive

Reference set (2 entries):
COMPOUND	GROUP
CS(=O)(=O)OCCCCOS(C)(=O)=O	inactive
CCCCN(CCCC)C(=O)N(CCCC)CCCC	active

Task: I'd appreciate the recorded outcome for Oc1c(Cl)cc(Cl)c(Cl)c1Cc1c(O)c(Cl)cc(Cl)c1Cl from this test.
Result: active

Task: Would you mind telling me which call this test gave CC(C)(N=C=O)c1cccc(C(C)(C)N=C=O)c1 ?
Result: inactive

Task: Tell me the recorded outcome of this test for CCN(CC)C(=O)N(CC)CC .
Result: inactive

---

Read-out: Matrix Metallopeptidase 1 (MMP1), MMP1 (gene 4312)
Assay: BSK_MyoF_MMP1: BioMAP Diversity Plus: MyoF Assay for Matrix Metallopeptidase 1 (MMP1) Biomarker Activity (AID 2284268)
Details: primary human lung fibroblasts
Active and inactive are the calls of the source. The calls were made as follows: active = hit-call score of the fitted dose curve at least 0.9, where 1 is the maximum; inactive = score below 0.9.
Your reply should match one of these outcome classes. active, inactive

Past entries and their recorded results:
COMPOUND STRUCTURE	GROUP
Oc1c(Cl)cc(Cl)c(Cl)c1Cc1c(O)c(Cl)cc(Cl)c1Cl	active
CCCCCC(C=O)=Cc1ccccc1	active
C=C(C)C(=O)OCC(CC)(COC(=O)C(=C)C)COC(=O)C(=C)C	active
Cc1cc(CCC(=O)OCCOCCOCCOC(=O)CCc2cc(C)c(O)c(C(C)(C)C)c2)cc(C(C)(C)C)c1O	inactive
C=C(C)C(=O)OCCOCCOCCOCCOC(=O)C(=C)C	inactive

Task: # fetch the recorded call for C=C(C)C(=O)OCCOCCOCCOC(=O)C(=C)C here
Result: inactive

Task: What was the test verdict on CCCCOC(=O)CCCCCCCC(=O)OCCCC ?
Result: inactive

Task: Please indicate how the test categorized CC(C)(C)CC(C)(C)c1ccc(OCCOCC[N+](C)(C)Cc2ccccc2)cc1 .
Result: inactive

Task: Check the results log: what was the call for Clc1cc(Cl)c(-c2c(Cl)c(Cl)cc(Cl)c2Cl)cc1Cl ?
Result: active

Task: What was the test verdict on COc1ccc(OC)c(N=Nc2c(O)ccc3ccccc23)c1 ?
Result: active

Task: # lookup: test call for CCN(CC)C(=O)N(CC)CC
Result: inactive

Task: Answer briefly: the call reported for CC=Cc1ccc(OCC)c(O)c1 in this assay.
Result: inactive

---

Read-out: Macrophage colony-stimulating factor (MCSF), CSF1 (gene 1435)
Test: BSK_LPS_MCSF: BioMAP Diversity Plus: LPS Assay for Macrophage colony-stimulating factor (MCSF) Biomarker Activity (AID 2283083)
Conditions: primary human HUVEC with PBMC; actives raise or lower the signal
Activity calls are given as the source filed them. The calls were made as follows: active = hit-call score of the fitted dose curve at least 0.9, where 1 is the maximum; inactive = score below 0.9.
Write down one outcome, taken from t = active, f = inactive

MOLECULE	GROUP
CCC(C)c1cc([N+](=O)[O-])cc([N+](=O)[O-])c1OC(=O)OC(C)C (stereo not given)	t
CC=Cc1ccc(OCC)c(O)c1	f
CC1(C)CCC[C@]2(C)[C@H]3CCO[C@]3(C)CC[C@@H]12	f

Task: // outcome(item) with item = Clc1cc(Cl)c(-c2c(Cl)c(Cl)cc(Cl)c2Cl)cc1Cl
Result: t

---

Experiment: ACEA_ER_AUC_viability: ACEA Biosciences xCELLigence Real-Time Cell Analysis on Estrogen Receptor Agonism for Viability (AID 2283782);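 note: continuous compound exposure with impedance area under curve over 80 h; hit means loss of impedance signal meaning reduced cell growth or viability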
Inconclusive results are not listed. Calls of active or inactive are those of the source. Rule for the calls: active = hit-call score of the fitted dose curve at least 0.9, where 1 is the maximum; inconclusive = response in the unintended direction; inactive = score below 0.9.
Your answer must be one of the following: YES for active, NO for inactive

Previously resolved entries follow.
MOLECULE	GROUP
CC(C)c1ccccc1O	NO
C=Cc1ccncc1	YES
Brc1ccc(Br)c(Br)c1	YES
CC1CCC(C(C)C)C(O)C1 (centres undefined)	NO
CCCCCC(C=O)=Cc1ccccc1	YES
O=C(Nc1ccc2c(O)c(N=Nc3ccc(N=Nc4ccc(S(=O)(=O)O)cc4)cc3)c(S(=O)(=O)O)cc2c1)c1ccccc1	NO
CCc1ccc(O)c(OC)c1	NO
CS(=O)(=O)OCCCCOS(C)(=O)=O	NO

Task: Hi, do you know how CCOC(=O)C(C#N)=C(c1ccccc1)c1ccccc1 came out in this test?
Result: NO

Task: Write down the call the test reported for this molecule. Item: COC(=O)c1ccc(OC)cc1
Result: NO

Task: Any idea what this test logged for CC/C=C\CC/C=C/CO ?
Result: YES

Task: How did this test come out for CN(C)c1ccncc1 ?
Result: YES

Task: Please let me know the test result on file for C1=CC2C3C=CC(C3)C2C1 (centres undefined) .
Result: NO

Task: Name the outcome recorded for OC[C@H]1O[C@@H]2O[C@H]3[C@H](O)[C@@H](O)[C@@H](O[C@H]4[C@H](O)[C@@H](O)[C@@H](O[C@H]5[C@H](O)[C@@H](O)[C@@H](O[C@H]6[C@H](O)[C@@H](O)[C@@H](O[C@H]7[C@H](O)[C@@H](O)[C@@H](O[C@H]8[C@H](O)[C@@H](O)[C@@H](O[C@H]9[C@H](O)[C@@H](O)[C@@H](O[C@H]1[C@H](O)[C@H]2O)O[C@@H]9CO)O[C@@H]8CO)O[C@@H]7CO)O[C@@H]6CO)O[C@@H]5CO)O[C@@H]4CO)O[C@@H]3CO in the assay.
Result: NO

---

Read-out: Vascular cell adhesion molecule 1 (VCAM1), VCAM1 (gene 7412)
Test: BSK_CASM3C_VCAM1: BioMAP Diversity Plus: CASM3C Assay for Vascular cell adhesion molecule 1 (VCAM1) Biomarker Activity (AID 2283055);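 note: VCAM-1 protein level quantified by ELISA on the cells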
Conditions: primary human coronary artery smooth muscle cells; actives raise or lower the signal
The source made the active and inactive calls. The calls were made as follows: active = hit-call score of the fitted dose curve at least 0.9, where 1 is the maximum; inactive = score below 0.9.
Please state which outcome applies, choosing from active, inactive

COMPOUND	GROUP
CC=Cc1ccc(OCC)c(O)c1	inactive
c1ccc(CCc2ccccc2)cc1	active
C=C(C)[C@H]1CC=C(C)C(=O)C1	inactive
CC(CN=Cc1ccccc1O)N=Cc1ccccc1O (stereo not drawn)	inactive
COc1ccc(OC)c(N=Nc2c(O)ccc3ccccc23)c1	active

Kindly review the next compound as well.
Task: Could you check what this test reported for O=C1OC[C@H](Cc2cccc(O)c2)[C@H]1Cc1cccc(O)c1 ?
Result: inactive

Reference for the values: PubChem BioAssay (EPA / NIEHS)
